Attribution: patent US8426429B2

The entries below are paired with their reported % Inhibition (FS).
- test_target: β-secretase (BACE) (Homo sapiens)
- Construct: purchased Panvera
- method_summary: BACE FS1 % Inhibition Assay
- Assay type: biochemical
- run_parameters: 0.3 μM test compound

Please review the following examples before continuing.
# compound, test_target, % Inhibition (FS)
records = [
    ("COc1cccc(COc2ccc3c(c2)CN(Cc2cccc(C(=O)N(C)C4CCCCC4)c2)C(N)=N3)c1", "β-secretase (BACE) (Homo sapiens)", "<30%"),
    ("CC(C)[C@@H](CNC(=O)C12CC3CC(CC(C3)C1)C2)N1Cc2cc(Oc3ccccc3)ccc2N=C1N", "β-secretase (BACE) (Homo sapiens)", "<30%"),
    ("CN(C(=O)c1cccc(CN2Cc3cc(Nc4ccc(N5CCOCC5)cc4)ccc3N=C2N)c1)C1CCCCC1", "β-secretase (BACE) (Homo sapiens)", "<30%"),
    ("NC1=Nc2ccc(-c3ccccc3Cl)cc2CN1CCNC(=O)C12CC3CC(CC(C3)C1)C2", "β-secretase (BACE) (Homo sapiens)", "<30%"),
    ("NC1=Nc2ccc(Oc3ccccc3)cc2CN1Cc1cccc(C(=O)NCCc2ccc(S(N)(=O)=O)cc2)c1", "β-secretase (BACE) (Homo sapiens)", "<30%"),
]

IN: Please give the measured % Inhibition (FS) for this compound: C[C@@H](CNC(=O)C1CCCCC1)N1Cc2cc(Oc3ccccc3)ccc2N=C1N
OUT: <30%

IN: Follow-up entry: CCCCC(CC)C(=O)NCCN1Cc2cc(-c3ccccc3Cl)ccc2N=C1N (centres unmarked)
OUT: 45%

IN: Follow-up entry: COc1ccccc1-c1ccc2c(c1)CN(Cc1cccc(C(=O)N(C)C3CCCCC3)c1)C(NC(C)=O)=N2
OUT: 94%

###

The entries below are paired with their reported % Inhibition (FS).
- test_target: β-secretase (BACE) (Homo sapiens)
- Construct: purchased Panvera
- method_summary: BACE FS1 % Inhibition Assay
- Format: biochemical
- run_parameters: 3 μM test compound
Please reply with the bare figure in % and do not write the unit itself.

# molecule, % Inhibition (FS) [%]
records = [
    ("CN(C(=O)CCC(C1CCCCC1)N1Cc2cc(Oc3ccccc3)ccc2N=C1N)C1CCC(O)CC1 (stereo not shown)", 48),
]

# input for lookup
IN: Please give the measured % Inhibition (FS) for this molecule: NC1=Nc2ccc(Oc3ccccc3)cc2CN1Cc1cccc(C(=O)N2CCC3CCCCC3C2)c1 (stereo not shown)
OUT: 67

###

- test_target: β-secretase (BACE) (Homo sapiens, UniProt P56817)
- Construct: purchased Panvera
- Sequence (P56817 46-501): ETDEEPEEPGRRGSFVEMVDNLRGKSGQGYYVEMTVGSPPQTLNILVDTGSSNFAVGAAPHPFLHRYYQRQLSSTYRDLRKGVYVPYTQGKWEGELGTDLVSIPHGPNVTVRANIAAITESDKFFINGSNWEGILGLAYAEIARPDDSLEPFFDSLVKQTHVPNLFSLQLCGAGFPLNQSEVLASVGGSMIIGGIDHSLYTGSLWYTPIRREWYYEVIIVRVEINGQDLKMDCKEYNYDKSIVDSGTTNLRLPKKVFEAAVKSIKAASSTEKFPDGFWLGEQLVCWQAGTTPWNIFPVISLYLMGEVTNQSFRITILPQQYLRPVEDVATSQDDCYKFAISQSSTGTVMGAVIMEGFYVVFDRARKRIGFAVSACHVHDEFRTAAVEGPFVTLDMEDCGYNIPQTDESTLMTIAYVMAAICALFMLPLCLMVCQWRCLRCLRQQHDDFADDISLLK
- method_summary: BACE FS1 % Inhibition Assay
- Type: biochemical
- run_parameters: 1 μM compound; FS1 substrate; 1 µM
readout_type: % Inhibition (FS) (%)
Please reply with the bare figure in % and do not write the unit itself.

# molecule, % Inhibition (FS), %
records = [
    ("CCOC(=O)C1CCC(N(C)C(=O)CCC(C2CCCCC2)N2Cc3cc(Oc4ccccc4)ccc3N=C2N)CC1 (stereo not shown) [Compound 763]", 84),
    ("CN(C(=O)CC[C@@H](C1CCOCC1)N1Cc2cc(Oc3ccccc3)ccc2N=C1N)[C@H]1CC[C@@H](C(=O)O)CC1 [Compound 748]", 71),
    ("CN(C(=O)CC[C@@H](C1CCOCC1)N1Cc2cc(Oc3ccccc3)ccc2N=C1N)[C@H]1CC[C@@H](C(=O)O)CC1 [Compound 745]", 114),
]

# input for lookup
IN: Please give the measured % Inhibition (FS) for this molecule: CCOC(=O)C1CCC(N(C)C(=O)CCC(C2CCCCC2)N2Cc3cc(Oc4ccccc4)ccc3N=C2N)CC1 (stereo not shown) [Compound 737]
OUT: 34
